Listed below: TGI values for each entry.
test system: HCC-2998 colon; assay: NCI tumour cell line growth inhibition, 48 h

In the examples that follow, each entry is paired with its recorded TGI.
CCN(CC)c1ccc(C2CC(c3cc(OC)c(OC)c(OC)c3)=NN2)cc1 (stereo not drawn) ... > 27 µM
O=C(Nc1cc2c(=O)[nH]c3ccccc3c2oc1=O)c1cnccn1 ... > 100 µM

Field: next compound
Req: Form field: reported TGI of CCOC(=O)N1CC2(C)C=CC1C(C(=O)OC)C2 (stereo not drawn)
Resp: > 100 µM

###

tested on: SR leukemia; assay: NCI tumour cell line growth inhibition, 48 h
Where a SMILES comes first, the peptide text is derived from it. [ ]: non-standard residue; d: D form. The star is where a group is joined. Phe(4-NO2) = N[CH](Cc1ccc([N+](=O)[O-])cc1)C(=O)O; Cbz = O=C(OCc1ccccc1)*
Each item that follows carries a reported TGI.

Solved entries (count: 2):
Cc1c(-c2ccccc2)[nH]c2ccc(Cl)cc2c1=O ... > 100 µM
CC(C)OC(=O)Nc1cccc(Cl)c1 ... > 100 µM

Req: Need TGI of CCOC(=O)CCC(NC(=O)OCc1ccccc1)C(=O)NC(CCC(=O)OCC)C(=O)NC(Cc1ccc([N+](=O)[O-])cc1)C(=O)NC(CCC(=O)OCC)C(=O)NC(CCC(=O)OCC)C(=O)OCC (configuration not stated) (Cbz-E(OEt)E(OEt)[Phe(4-NO2)]E(OEt)E(OEt)-OEt; configuration not given here) , thanks.
Resp: > 100 µM

Req: Given Sc1ccc2ccccc2c1CNCc1ccccc1 , state its recorded TGI.
Resp: 15.4 µM

Req: Dear colleague, I am looking for the recorded TGI of the following compound: Nc1nc(Cl)cc(NCCCNc2cc(Cl)nc(N)n2)n1
Resp: > 100 µM

Req: Would you mind telling me what TGI value was observed for Cc1c(C#N)c(N)[nH]c(=S)c1C#N ?
Resp: > 100 µM

Req: Item COc1cc(-c2nc(NC(C)=O)sc2-c2ccnc(NCCNS(=O)(=O)c3ccccc3)n2)ccc1Cl has what recorded TGI?
Resp: > 100 µM

Req: Look up TGI: C1=Nc2ccc(cc2)N=Cc2ccccc2OCc2cccc(n2)COc2ccccc21
Resp: > 100 µM

Req: // TGI lookup, key: CCCCCCCCCCCCCCCCOCC(CN(C)CCN(C)C)OCCCCCCCCCCCCCCCC (configuration not stated)
Resp: > 100 µM

Req: Returns the measured TGI for the input compound. Input: O=C(/C=C/c1ccc(O)c(O)c1)OCc1ccccc1
Resp: 19.7 µM

Req: Would you mind telling me what TGI value was observed for CO[C@H]1ON=C(c2c(C)cc(C)cc2C)[C@@H]1C1(c2ccccc2)ON=C(c2c(C)cc(C)cc2C)O1 (some centres not stated) ?
Resp: > 100 µM

Req: Could you tell me which TGI is on file for COc1cc(C2SCC(=O)N2Cc2ccccc2)cc(OC)c1OC (configuration not stated) ?
Resp: > 100 µM

Req: Can you look up the measured TGI of NC(=NCCCC1(c2ccccc2)CCCC1)Nc1ccc(Cl)cc1 for me?
Resp: 4.24 µM

Req: Which TGI value is on record for O=C(Nc1cccc(NC(=O)C(=O)C2CCC3=C(Sc4ccccc4N3)C2=O)n1)C(=O)C1CCC2=C(Sc3ccccc3N2)C1=O (configuration not stated) ?
Resp: > 100 µM

Req: Which TGI value belongs to CC(=O)[O-].CC(=O)[O-].O=C(N/N=C/c1cc(Cl)cc(Cl)c1O)c1ccncc1.[Ni+2] ?
Resp: > 100 µM

Req: Sample CC1C(=NO)C(C)C(c2ccccc2)N(N=O)C1c1ccccc1 (configuration not stated) — what was its TGI?
Resp: 45.7 µM

Req: Recorded TGI of COc1c2ccoc2cc2oc(=O)ccc12 , please.
Resp: > 100 µM

Req: Requested field: TGI. Item: COC(=O)NC1(NC(=O)OC)NC(=O)c2cc(OC)c(OC)cc2N1
Resp: > 100 µM
